Origin of values: paper PMC10817943

Target: M. smegmatis DnaN (msDnaN) (Mycolicibacterium smegmatis)
Sequence (A0QND6 whole entry, looked up): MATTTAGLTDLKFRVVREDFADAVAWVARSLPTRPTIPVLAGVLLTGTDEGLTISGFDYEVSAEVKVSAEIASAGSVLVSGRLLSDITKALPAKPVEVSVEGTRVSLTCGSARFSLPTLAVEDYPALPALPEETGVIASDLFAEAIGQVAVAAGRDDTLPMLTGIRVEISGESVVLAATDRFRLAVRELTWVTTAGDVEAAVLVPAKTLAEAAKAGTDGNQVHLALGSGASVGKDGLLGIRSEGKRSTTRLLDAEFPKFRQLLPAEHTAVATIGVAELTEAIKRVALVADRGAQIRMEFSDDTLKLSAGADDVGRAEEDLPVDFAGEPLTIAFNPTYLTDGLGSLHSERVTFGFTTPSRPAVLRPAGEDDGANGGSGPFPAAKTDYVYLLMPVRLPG
Numbered stars: 1 amine (or outer) side, 2 acyl side, 3 side chain; on linkers, the order of the positions; unused ones are H or OH. Bridge positions count the residues as written; N and C are the ends. Square brackets hold non-standard residues; d marks the D form. Peptide text beside a SMILES is read from it. * marks the point of attachment. ξ: configuration not given here. X2 = CCCC1CC(C(=O)[*:2])N([*:1])C1; X1 = CCC1CC(C(=O)[*:2])N([*:1])C1; Butanoyl(2-oxo) = CCC(=O)C(=O)*; NMeAhp(2) = CCCCC[CH](NC)C(=O)O; ξPro(4ξ-Me) = CC1CNC(C(=O)O)C1; NMeT = CN[CH](C(=O)O)[CH](C)O; NMeL = CN[CH](CC(C)C)C(=O)O; hLeu = CC(C)CC[CH](N)C(=O)O; NMeV = CN[CH](C(=O)O)C(C)C
assayMetric: Kd (nM)
A number alone suffices; assume nM.

CCC(=O)C(=O)N(C)C(C(=O)N1CC(C)CC1C(=O)N(C)C1C(=O)NC(CC(C)C)C(=O)N2CC(C)CC2C(=O)NC(CCC(C)C)C(=O)N(C)C(C(C)C)C(=O)N2CCCC2C(=O)N(C)C(CC(C)C)C(=O)NCC(=O)OC1C)C(C)C (stereo not shown) [Mycoplanecin B] = 24.4

// Kd (M. smegmatis DnaN (msDnaN) (Mycolicibacterium smegmatis)) for CCCC1CC(C(=O)N(C)C2C(=O)NC(CC(C)C)C(=O)N3CC(C)CC3C(=O)NC(CCC(C)C)C(=O)N(C)C(C(C)C)C(=O)N3CCCC3C(=O)N(C)C(CC(C)C)C(=O)NCC(=O)OC2C)N(C(=O)C(C(C)C)N(C)C(=O)C(=O)CC)C1 (stereo not shown) [Mycoplanecin D] ({Butanoyl(2-oxo)}-[NMeV][X2][NMeT]L[ξPro(4ξ-Me)][hLeu][NMeV]P[NMeL]G; ester 3-C; configuration not given here) = 134

So the reported Kd for CCC(=O)C(=O)N(C)C(C(=O)N1CC(CC)CC1C(=O)N(C)C1C(=O)NC(CC(C)C)C(=O)N2CC(C)CC2C(=O)NC(CCC(C)C)C(=O)N(C)C(C(C)C)C(=O)N2CCCC2C(=O)N(C)C(CC(C)C)C(=O)NCC(=O)OC1C)C(C)C (stereo not shown) [Mycoplanecin A] ({Butanoyl(2-oxo)}-[NMeV][X1][NMeT]L[ξPro(4ξ-Me)][hLeu][NMeV]P[NMeL]G; ester 3-C; configuration not given here) , on M. smegmatis DnaN (msDnaN) (Mycolicibacterium smegmatis), turned out to be 95.4

Let me check: CCCCCC1C(=O)NCC(=O)OC(C)C(N(C)C(=O)C2CC(CCC)CN2C(=O)C(C(C)C)N(C)C(=O)C(=O)CC)C(=O)NC(CC(C)C)C(=O)N2CC(C)CC2C(=O)NC(CCC(C)C)C(=O)N(C)C(C(C)C)C(=O)N2CCCC2C(=O)N1C (stereo not shown) [Mycoplanecin E] ({Butanoyl(2-oxo)}-[NMeV][X2][NMeT]L[ξPro(4ξ-Me)][hLeu][NMeV]P[NMeAhp(2)]G; ester 3-C; configuration not given here) , system M. smegmatis DnaN (msDnaN) (Mycolicibacterium smegmatis), measured Kd is 64.4
